target: recombinant hMAO-A (Homo sapiens, UniProt P21397); construct: purchased Sigma-Aldrich; test: MAO-A inhibition assay (kynuramine substrate); type: biochemical; conditions: mean ± standard error of duplicates; reference compounds after 30 min preincubation with enzyme
Sequence (P21397 whole entry): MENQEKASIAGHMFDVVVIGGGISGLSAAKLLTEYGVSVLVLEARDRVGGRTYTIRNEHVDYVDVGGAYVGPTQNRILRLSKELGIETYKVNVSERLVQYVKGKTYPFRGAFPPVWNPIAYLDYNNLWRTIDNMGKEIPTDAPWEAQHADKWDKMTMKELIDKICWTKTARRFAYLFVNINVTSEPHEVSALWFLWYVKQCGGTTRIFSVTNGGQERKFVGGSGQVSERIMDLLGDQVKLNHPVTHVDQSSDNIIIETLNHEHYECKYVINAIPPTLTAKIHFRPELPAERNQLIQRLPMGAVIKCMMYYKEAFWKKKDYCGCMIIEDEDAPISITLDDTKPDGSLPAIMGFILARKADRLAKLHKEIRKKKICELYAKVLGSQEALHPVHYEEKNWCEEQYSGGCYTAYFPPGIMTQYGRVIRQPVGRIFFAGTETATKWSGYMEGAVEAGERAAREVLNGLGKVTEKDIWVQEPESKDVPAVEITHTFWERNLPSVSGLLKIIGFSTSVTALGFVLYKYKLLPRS
Please respond with reported IC50 for every item in the list.

A selection of reference data follows.
COc1ccc(C(=O)/C=C/c2ccc(ON=C(c3ccccc3)c3ccccc3)cc2)cc1    > 10 µM
COc1ccc(/C=C/C(=O)c2ccc(ON=C3CCCCC3)cc2)cc1    > 10 µM
COc1ccc(/C=C/C(=O)c2ccc(O/N=C(\C)c3ccc(F)cc3)cc2)cc1    > 10 µM

Please give IC50, item by item, for the list that follows.
1. COc1ccc(C(/C=C/c2ccccc2)=N\Oc2ccc(C(=O)/C=C/c3cc(OC)c(OC)c(OC)c3)cc2)cc1
2. COc1cccc(C(=O)/C=C/c2ccc(O/N=C(\C)c3cccc4ccccc34)cc2)c1
3. COc1cccc(/C=C/C(=O)c2ccc(O/N=C(\C)c3cccs3)cc2)c1
4. COc1ccc(/C=C/C(=O)c2ccc(O/N=C(\C)c3cccc4ccccc34)cc2)cc1OC
5. COc1ccc(/C=C/C(=O)c2ccc(O/N=C(/C=C/c3ccc(OC)cc3)c3ccc(OC)cc3)cc2)cc1

## Result
1: > 10 µM; 2: 7.68 µM; 3: 0.88 µM; 4: > 10 µM; 5: > 10 µM

Short answer for C/C(=N\Oc1ccc(/C=C/C(=O)c2ccccc2)cc1)c1ccc(F)cc1 : IC50 was > 10 µM

###

biological target: AChE (Type VI-S from Electrophorus electricus) (Electrophorus electricus); construct: purchased Sigma-Aldrich Type VI-S; test: AChE inhibition assay (DTNB / acetylthiocholine iodide); type: biochemical; conditions: compound at 10 µM; mean ± standard error of duplicate experiments; read-out: Residual Activity (%) AChE (10 µM)
Sequence (O42275 24-633): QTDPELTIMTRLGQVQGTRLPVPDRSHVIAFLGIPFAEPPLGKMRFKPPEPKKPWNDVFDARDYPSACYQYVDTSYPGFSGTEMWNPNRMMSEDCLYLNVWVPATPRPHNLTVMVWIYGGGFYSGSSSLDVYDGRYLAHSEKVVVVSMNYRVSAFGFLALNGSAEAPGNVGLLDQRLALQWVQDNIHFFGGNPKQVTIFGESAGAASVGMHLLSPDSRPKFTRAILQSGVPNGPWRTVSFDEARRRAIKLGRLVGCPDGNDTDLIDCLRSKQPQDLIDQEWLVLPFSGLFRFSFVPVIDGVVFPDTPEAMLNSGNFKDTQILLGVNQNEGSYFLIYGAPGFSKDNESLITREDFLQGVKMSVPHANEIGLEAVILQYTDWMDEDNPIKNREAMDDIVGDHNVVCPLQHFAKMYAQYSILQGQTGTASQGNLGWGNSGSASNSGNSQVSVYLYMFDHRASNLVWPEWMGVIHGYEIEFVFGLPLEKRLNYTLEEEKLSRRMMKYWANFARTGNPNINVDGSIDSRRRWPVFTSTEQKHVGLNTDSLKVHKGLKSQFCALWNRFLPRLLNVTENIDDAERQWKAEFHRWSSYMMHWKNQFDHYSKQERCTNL
Please respond with reported remaining activity at 10 µM for every item in the list.
One number for each entry, in %.

COc1ccc(C(/C=C/c2ccccc2)=N\Oc2ccc(C(=O)/C=C/c3cc(OC)c(OC)c(OC)c3)cc2)cc1    72.5
COc1ccc(/C=C/C(=O)c2ccc(O/N=C(\C)c3ccc(F)cc3)cc2)cc1    87.2
COc1cc(/C=C/C(=O)c2ccc(ON=C(c3ccccc3)c3ccccc3)cc2)cc(OC)c1OC    56.9
COc1ccc(C(=O)/C=C/c2ccc(O/N=C(\C)c3ccc(OC)cc3)cc2)cc1    66.5

Alright, here's another molecule for you.
With AChE (Type VI-S from Electrophorus electricus) (Electrophorus electricus) as the test system, O=C(/C=C/c1ccc(ON=C2CCCCC2)cc1)c1ccc(F)cc1 showed remaining activity at 10 µM of 79.4

###

molecular target: recombinant hMAO-A (Homo sapiens); construct: purchased Sigma-Aldrich; test: MAO-A inhibition assay (kynuramine substrate); type: biochemical; settings: mean ± standard error of duplicates; reference compounds after 30 min preincubation with enzyme
Please respond with reported IC50 for every item in the list.

A selection of reference data follows.
COc1ccc(/C=C/C(=N/Oc2ccc(/C=C/C(=O)c3ccccc3)cc2)c2ccc(OC)cc2)cc1 [COE-19]    > 10 µM
O=C(/C=C/c1ccc(ON=C2CCCCC2)cc1)c1ccc(F)cc1 [COE-6]    4 µM
Cc1ccc(/C=C/C(=O)c2ccc(O/N=C3\CCc4ccccc43)cc2)cc1 [COE-12]    > 10 µM

Please give IC50, item by item, for the list that follows.
1. COc1ccc(/C=C/C(=N/Oc2ccc(/C=C/C(=O)c3ccc(OC)cc3)cc2)c2ccc(OC)cc2)cc1 [COE-20]
2. COc1ccc(C(/C=C/c2ccccc2)=N\Oc2ccc(C(C)=O)cc2)cc1 [COE-16]
3. COc1ccc(C(=O)/C=C/c2ccc(O/N=C(\C)c3ccc(OC)cc3)cc2)cc1 [COE-2]
4. COc1ccc(/C=C/C(=N/Oc2ccc(C(C)=O)cc2)c2ccc(OC)cc2)cc1 [COE-17]
5. COC(=O)c1ccc(O/N=C(/C=C/c2ccc(OC)cc2)c2ccc(OC)cc2)cc1 [COE-18]
6. COc1ccc(C(/C=C/c2ccccc2)=N\Oc2ccc(/C=C/C(=O)c3ccc(C)cc3)cc2)cc1 [COE-21]

## Result
> 10 µM
> 10 µM
> 10 µM
> 10 µM
> 10 µM
15.9 µM
